Where do these numbers come from? They come from ChEMBL document CHEMBL1201862.

Tested on: BT-549
Assay: NCI tumour cell line growth inhibition, 48 h
Activity calls are given as the source filed them. No stated cut-off is given here; in the data, active = GI50 up to about 1.1 µM and inactive = higher.
Outcome codes: active, inactive

| compound | class-label |
| --- | --- |
| CC1OC(OC2C(O[C@H]3CC[C@@]4(C)C(=CC[C@H]5[C@@H]6C[C@@H]7O[C@]8(CC[C@@H](CO)CO8)[C@@H](C)[C@@H]7[C@@]6(C)CC[C@@H]54)C3)OC(CO)C(O)C2OC2OC(CO)C(O)C(O)C2O)C(O)C(O)C1O (some centres not stated) | inactive |
| COc1ccc(C2N(c3ccc(F)cc3)C(=O)N3C(c4ccc(OC)cc4)N(c4ccc(F)cc4)C(=O)N23)cc1 (configuration not stated) | inactive |
| O=C1N/C(=N/N=C/C(O)C(O)C(O)CO)N/C1=C\c1ccco1 (configuration not stated) | inactive |
| Nc1nc(N)c2ncn(Cc3ccccc3CO)c2n1 | inactive |
| O=c1n(CCCN2CCN(c3cccc(Cl)c3)CC2)nc2n1-c1ccc3ccccc3c1SC2 | inactive |
| O=P(O)(O)CN1CCNCCN(CP(=O)(O)O)CCN(CP(=O)(O)O)CCNCC1 | inactive |
| CS(=O)(=O)CCC(N)P(=O)(O)O (configuration not stated) | inactive |
| COc1cc(OC)cc(-c2cc(=O)c3c(OC)c(OC)c(OC)c(OC)c3o2)c1 | inactive |
| COC(=O)[C@H]1C=NN[C@@H]1C(=O)N1[C@H]2CC3CC[C@@]2(CS1(=O)=O)C3(C)C | inactive |
| CC1=C(CCC(C)CO)O[C@H]2C[C@H]3[C@@H]4CC[C@H]5C[C@@H](O)CC[C@]5(C)[C@H]4CC(=O)[C@]3(C)[C@@H]12 (some centres not stated) | inactive |
| O=C(OC1C#CCSCC#C/C=C\1)c1ccc2c(c1)C(=O)c1ccccc1C2=O (configuration not stated) | inactive |
| O=C(O)c1c(CC(Cc2ccc3c(c2)CCC3)C(=O)O)ccc2c1CCC2 (configuration not stated) | inactive |
| CC(=O)NC1=CC(=O)C=C(Cl)C1=O | inactive |
| Cc1cc(C)c(N[S+]([O-])c2cccc(C(F)(F)F)c2)c(C)c1 (configuration not stated) | inactive |
| CCC1OC2(C)CC(C#N)(C#N)C1(C#N)C(=N)O2 (configuration not stated) | inactive |
| Cc1ccc(/N=N/c2c(O)c(C(=O)O)cc3ccccc23)c(S(=O)(=O)O)c1 | inactive |
| CC(=O)Nc1ccccc1S(=O)(=O)c1c(-c2c(C)c(Cl)c(C)c(Cl)c2C)noc1C | inactive |
| O=C1ON=C2C3CC4CC12CC1(C3)C(=O)ON=C41 | inactive |
| N=c1c2c3n(c4c(=O)n(-c5ccccc5)c(=S)n(c(=O)n1-c1ccccc1)c24)CCCCC3 | inactive |
| COc1ccc(-c2c(C#N)c(N)n(C3OCC(O)C(O)C3O)c(=S)c2C#N)cc1 (configuration not stated) | inactive |
| CC1OC(O)CC(N(C)C)C1O.CC1OC(O)CCC1O.CCC1CC(O)c2c(O)c3c(c(O)c2C1O)C(=O)c1cccc(O)c1C3=O (configuration not stated) | active |
| Nn1c(Sc2nc3ccccc3c(=O)n2N)nc2ccccc2c1=O | inactive |
| CC(C)(C)OC(=O)NC(Cc1ccc([N+](=O)[O-])cc1)C(=O)NC(CCCCNC(=O)OCc1ccccc1)C(=O)ON1C(=O)CCC1=O (configuration not stated) | inactive |
| Cc1cc(S(=O)(=O)Nc2nc(-c3ccccn3)n[nH]2)c(S)cc1Cl | inactive |
| COC(=O)C1=C(C(=O)OC)SC2(S1)C(C(=O)OC)=C(C(=O)OC)Sc1c2ss/c1=N\c1ccc(Cl)cc1 | inactive |
| C/C(=N\c1cc(Cl)cc(Cl)c1)c1ccncc1 | inactive |
| CN(C)c1ccc(/C=C2\N=C(N/N=C/c3ccccc3O)NC2=O)cc1 | inactive |
| O=C(N/N=C\c1ccc([N+](=O)[O-])s1)c1ccncc1 | inactive |
| COc1ccc(-c2nc(O)c3ccccc3n2)cc1 | inactive |
| O=S(=O)(Nc1nc2ccccc2nc1Nc1ccc2ccccc2c1)c1ccccc1 | inactive |
| O=C1OC[C@H]2[C@@H]1[C@H]1O[C@@H]2C2=C(CCC2)C1=O | inactive |
| CCOC(=O)COc1cc(-c2ccccc2F)nc2cc3c(cc12)OCO3 | inactive |
| CCC1CC(=O)N(SCC(N)C(=O)O)C1=O (configuration not stated) | inactive |
| CCOC(=O)/C(C(=O)Nc1ccc(Cl)cc1)=C(/N)N1CCOCC1 | inactive |
| CC(C)(C)OC(=O)NCCC(N)=S | inactive |
| C/C1=C/C(=O)O[C@@H]2C[C@@H](CC[C@H](C)/C=C\C=C\CC1)O[C@@](O)([C@@H]1CSC(=O)N1)C2 | active |
| CSc1nc(SC)c2c(C)cn(COCCOC(=O)c3ccccc3)c2n1 | inactive |
| Cc1cc2c(c(C(=O)NCCC(=O)O)c1)Oc1c(cc(C)cc1C(=O)NCCC(=O)O)S2 | inactive |
| CC(=O)OC(C)c1cc2c(s1)C(=O)c1sccc1C2=O (configuration not stated) | active |
| CCOP(=O)(OCC)/C(C#N)=C/c1cccn1C | inactive |
| CCC(=O)/C=C/c1ccccc1 | inactive |
| Nc1nc(=O)c(/N=N/c2ccc([As](=O)(O)O)cc2)c(N)[nH]1 | inactive |
